Every entry's value here was drawn from paper PMC11345841.

The compounds listed here are annotated with their difference in %Control from compound Ib at 1 µM.
target: FLT3(D835H) (Homo sapiens, UniProt P36888, D835H); construct: purchased Eurofins DiscoverX KINOMEscan (scanTK); test: KINOMEscan ScanTK; format: binding; conditions: @1000nM
The reply should contain only the number, in %.

Examples from the recorded data:
Reported difference in %Control from compound Ib at 1 µM of COC(=O)c1cnc(S(C)(=O)=O)nc1N1CCCC(n2nc(-c3ccc(Oc4ccccc4)cc3)c3c(N)ncnc32)C1 (stereo not shown) : 38

Reported difference in %Control from compound Ib at 1 µM of "CCOC(=O)c1cnc(S(C)(=O)=O)nc1N1CCC[C@@H](n2nc(-c3ccc(Oc4ccccc4)cc3)c3c(N)ncnc32)C1" : 60

Reported difference in %Control from compound Ib at 1 µM of Cc1cnc(S(C)(=O)=O)nc1N1CCCC(n2nc(-c3ccc(Oc4ccccc4)cc3)c3c(N)ncnc32)C1 (stereo not shown) : 32

Field: next compound
Reported difference in %Control from compound Ib at 1 µM of CNC(=O)c1cnc(S(C)(=O)=O)nc1N1CCCC(n2nc(-c3ccc(Oc4ccccc4)cc3)c3c(N)ncnc32)C1 (stereo not shown) : 47

====

The molecules listed here are annotated with their difference in % of control versus compound Ib at 1 µM.
molecular target: TRKA (Homo sapiens, UniProt P04629); construct: purchased Eurofins DiscoverX KINOMEscan (scanTK); test: KINOMEscan ScanTK; format: binding; conditions: @1000nM; TRKA
Sequence (P04629 33-796): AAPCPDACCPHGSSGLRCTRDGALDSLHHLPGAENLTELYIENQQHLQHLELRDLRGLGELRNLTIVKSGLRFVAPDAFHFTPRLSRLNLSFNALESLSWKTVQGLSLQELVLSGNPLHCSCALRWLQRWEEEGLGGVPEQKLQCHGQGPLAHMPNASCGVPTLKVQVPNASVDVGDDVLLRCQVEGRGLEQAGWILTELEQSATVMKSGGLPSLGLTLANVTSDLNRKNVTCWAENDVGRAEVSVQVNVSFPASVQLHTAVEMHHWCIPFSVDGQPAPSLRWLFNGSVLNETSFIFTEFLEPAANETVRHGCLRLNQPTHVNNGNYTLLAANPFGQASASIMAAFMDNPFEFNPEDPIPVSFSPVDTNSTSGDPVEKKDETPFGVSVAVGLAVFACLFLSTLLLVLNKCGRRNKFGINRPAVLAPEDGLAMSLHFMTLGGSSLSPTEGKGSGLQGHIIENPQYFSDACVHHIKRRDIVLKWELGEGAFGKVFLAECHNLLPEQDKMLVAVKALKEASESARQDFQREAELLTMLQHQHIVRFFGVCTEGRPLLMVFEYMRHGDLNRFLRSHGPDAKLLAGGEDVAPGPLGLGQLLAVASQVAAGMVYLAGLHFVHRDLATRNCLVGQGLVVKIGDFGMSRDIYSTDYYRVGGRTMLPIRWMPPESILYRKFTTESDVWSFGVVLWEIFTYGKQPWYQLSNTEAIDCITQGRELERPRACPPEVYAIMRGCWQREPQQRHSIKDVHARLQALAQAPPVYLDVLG
The reply should contain only the number, in %.

Examples from the recorded data:
Reported difference in % of control versus compound Ib at 1 µM of Cc1cnc(S(C)(=O)=O)nc1N1CCCC(n2nc(-c3ccc(Oc4ccccc4)cc3)c3c(N)ncnc32)C1 (stereo not shown) [Compound 8a] : 12

Reported difference in % of control versus compound Ib at 1 µM of COC(=O)c1cnc(S(C)(=O)=O)nc1N1CCCC(n2nc(-c3ccc(Oc4ccccc4)cc3)c3c(N)ncnc32)C1 (stereo not shown) [Compound 8b] : 4

Reported difference in % of control versus compound Ib at 1 µM of CCOC(=O)c1cnc(S(C)(=O)=O)nc1N1CCC[C@@H](n2nc(-c3ccc(Oc4ccccc4)cc3)c3c(N)ncnc32)C1 [Compound 8c] : 8

Others:
Reported difference in % of control versus compound Ib at 1 µM of CNC(=O)c1cnc(S(C)(=O)=O)nc1N1CCCC(n2nc(-c3ccc(Oc4ccccc4)cc3)c3c(N)ncnc32)C1 (stereo not shown) [Compound 8d] : -2

====

molecular target: EGFR(G719C) (Homo sapiens, UniProt P00533, G719C); construct: purchased Eurofins DiscoverX KINOMEscan (scanTK); experiment: KINOMEscan ScanTK; assay type: binding; conditions: @1000nM
Sequence (P00533 25-1210 G719C): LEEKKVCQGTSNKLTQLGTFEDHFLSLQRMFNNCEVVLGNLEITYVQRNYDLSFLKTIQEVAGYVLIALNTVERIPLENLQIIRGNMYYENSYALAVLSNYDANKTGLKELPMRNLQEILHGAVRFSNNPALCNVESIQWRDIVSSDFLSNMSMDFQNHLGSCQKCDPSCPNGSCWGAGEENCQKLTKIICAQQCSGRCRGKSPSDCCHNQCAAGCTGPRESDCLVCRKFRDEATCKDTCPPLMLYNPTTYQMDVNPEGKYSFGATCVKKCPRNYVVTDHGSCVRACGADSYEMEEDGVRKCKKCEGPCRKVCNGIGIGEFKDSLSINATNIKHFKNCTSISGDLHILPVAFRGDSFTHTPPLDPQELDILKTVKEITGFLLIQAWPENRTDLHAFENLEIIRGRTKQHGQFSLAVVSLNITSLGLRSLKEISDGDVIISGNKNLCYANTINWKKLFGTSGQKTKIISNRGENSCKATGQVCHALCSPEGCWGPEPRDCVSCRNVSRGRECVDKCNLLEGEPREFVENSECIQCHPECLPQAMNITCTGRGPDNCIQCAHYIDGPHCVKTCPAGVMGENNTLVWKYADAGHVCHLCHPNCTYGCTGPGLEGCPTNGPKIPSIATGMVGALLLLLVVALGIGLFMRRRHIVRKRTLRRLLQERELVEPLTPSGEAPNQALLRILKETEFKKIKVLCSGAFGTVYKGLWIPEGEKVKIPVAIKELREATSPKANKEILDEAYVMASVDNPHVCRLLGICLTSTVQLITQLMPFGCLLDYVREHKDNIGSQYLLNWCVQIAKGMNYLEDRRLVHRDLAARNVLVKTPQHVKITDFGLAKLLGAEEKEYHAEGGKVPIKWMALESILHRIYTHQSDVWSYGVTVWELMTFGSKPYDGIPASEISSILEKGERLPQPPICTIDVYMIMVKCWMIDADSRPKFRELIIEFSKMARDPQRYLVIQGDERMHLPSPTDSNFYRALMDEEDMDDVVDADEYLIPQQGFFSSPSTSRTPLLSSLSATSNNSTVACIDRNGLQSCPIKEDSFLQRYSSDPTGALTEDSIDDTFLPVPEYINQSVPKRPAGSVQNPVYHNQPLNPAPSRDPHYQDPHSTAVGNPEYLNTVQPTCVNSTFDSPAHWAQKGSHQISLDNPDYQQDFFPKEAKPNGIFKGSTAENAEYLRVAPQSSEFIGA
ENDPOINT_NAME: difference in %Control vs compound Ib at 1 µM (%)
The reply should contain only the number, in %.

Examples from the recorded data:
Reported difference in %Control vs compound Ib at 1 µM of Cc1cnc(S(C)(=O)=O)nc1N1CCCC(n2nc(-c3ccc(Oc4ccccc4)cc3)c3c(N)ncnc32)C1 (stereo not shown) [Compound 8a] : 32.9

Reported difference in %Control vs compound Ib at 1 µM of CCOC(=O)c1cnc(S(C)(=O)=O)nc1N1CCC[C@@H](n2nc(-c3ccc(Oc4ccccc4)cc3)c3c(N)ncnc32)C1 [Compound 8c] : 6.4

Reported difference in %Control vs compound Ib at 1 µM of COC(=O)c1cnc(S(C)(=O)=O)nc1N1CCCC(n2nc(-c3ccc(Oc4ccccc4)cc3)c3c(N)ncnc32)C1 (stereo not shown) [Compound 8b] : 1.7

Field: next molecule
Reported difference in %Control vs compound Ib at 1 µM of CNC(=O)c1cnc(S(C)(=O)=O)nc1N1CCCC(n2nc(-c3ccc(Oc4ccccc4)cc3)c3c(N)ncnc32)C1 (stereo not shown) [Compound 8d] : -0.45
